TARGET: Lck (Homo sapiens)
Construct: Kinases are expressed as either kinase domains or full length constructs; made in house
Sequence (P06239 whole entry, species assumed, the tested form may be a part): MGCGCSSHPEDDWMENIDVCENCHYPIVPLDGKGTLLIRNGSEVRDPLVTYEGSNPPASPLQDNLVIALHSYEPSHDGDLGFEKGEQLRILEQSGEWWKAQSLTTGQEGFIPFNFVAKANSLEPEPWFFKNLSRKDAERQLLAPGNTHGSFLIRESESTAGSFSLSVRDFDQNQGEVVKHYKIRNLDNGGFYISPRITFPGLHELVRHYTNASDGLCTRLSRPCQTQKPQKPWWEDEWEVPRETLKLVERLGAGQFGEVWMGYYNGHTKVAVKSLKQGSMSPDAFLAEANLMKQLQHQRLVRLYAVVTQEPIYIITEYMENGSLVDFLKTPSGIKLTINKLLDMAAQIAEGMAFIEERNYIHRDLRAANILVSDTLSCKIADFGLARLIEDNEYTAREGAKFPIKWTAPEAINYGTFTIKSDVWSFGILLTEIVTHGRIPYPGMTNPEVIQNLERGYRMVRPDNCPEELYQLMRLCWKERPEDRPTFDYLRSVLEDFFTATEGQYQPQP
PROTOCOL_DETAILS: Kinase inhibition assay (33P transfer), Lck
Assay type: biochemical
CONDITIONS_USED: read-out: Lck-1
pIC50: −log10 of the molar value.
RECORDED_ENDPOINT: pIC50

NC(=O)Cc1cccc(Nc2ncnc(Nc3cc(-c4ccccc4)n[nH]3)n2)c1 | > 5.98
COc1cc(Nc2ncnc(Nc3cccc(C(C)=O)c3)n2)cc(OC)c1OC | > 5.99
O=c1[nH]c2ccccc2n1-c1ncnc(Nc2ncccn2)n1 | < 4.83
CCN(CC)CCNc1ncnc(N(C)c2cccc(Cl)c2)n1 | < 4.87
O=c1[nH]c2ccccc2n1-c1ncnc(Nc2cccc3cccnc23)n1 | < 4.90

Input line: Quick one: pIC50 of `COc1cc(Nc2ncnc(-n3c(NCc4ncccc4C)nc4ccccc43)n2)cc(OC)c1OC` ?
Output line: < 5.04

Input line: Quick one: pIC50 of `O=c1[nH]c2ccccc2n1-c1ncnc(Nc2ccncc2)n1` ?
Output line: < 4.83

Input line: Quick one: pIC50 of `COc1cc(Nc2ncnc(NC(=O)NCCc3ccccc3)n2)cc(OC)c1OC` ?
Output line: < 4.97

Input line: Quick one: pIC50 of `CCOC(=O)C(Cc1cccc(Nc2ncnc(Nc3cc(-c4ccco4)n[nH]3)n2)c1)(NC(C)=O)C(=O)OCC` ?
Output line: < 5.09

Input line: Quick one: pIC50 of `COC(=O)Cc1cccc(Nc2ncnc(-n3c(N)nc4ccccc43)n2)c1` ?
Output line: 5.19 to 5.97

Input line: Quick one: pIC50 of `COc1cc(Nc2ncnc(-n3c(NCc4cccs4)nc4ccccc43)n2)cc(OC)c1OC` ?
Output line: > 6.09

Input line: Quick one: pIC50 of `COc1cc(Nc2ncnc(NN3CCCC3)n2)cc(OC)c1OC` ?
Output line: < 4.89

Input line: Quick one: pIC50 of `CC(C)(C)c1cc(Nc2ncnc(Nc3cccc(C(N)=O)c3)n2)[nH]n1` ?
Output line: 5.17 to 5.94

Input line: Quick one: pIC50 of `COc1cc(Nc2ncnc(Nc3ccc(Br)c4ccccc34)n2)cc(OC)c1OC` ?
Output line: 5.30 to 6.08

Input line: Quick one: pIC50 of `c1ccc(Cn2ncc3cc(Nc4ncnc(Nc5cc(-c6ccccc6)[nH]n5)n4)ccc32)cc1` ?
Output line: 5.12 to 5.28

Input line: Quick one: pIC50 of `COc1cc(Nc2ncnc(Nc3cccc4ccccc34)n2)cc(OC)c1OCCN1CCOCC1` ?
Output line: > 6.10

Input line: Quick one: pIC50 of `CN(c1cccc(Cl)c1)c1ncnc(Nc2ccc(F)c(C(F)(F)F)c2)n1` ?
Output line: < 4.95

Input line: Quick one: pIC50 of `CN(c1cccc(Cl)c1)c1ncnc(NCCN2CCCCC2)n1` ?
Output line: < 4.89

* * *

TARGET: EGFR (Homo sapiens)
Construct: Kinases are expressed as either kinase domains or full length constructs; made in house
Sequence (P00533 25-1210, species assumed): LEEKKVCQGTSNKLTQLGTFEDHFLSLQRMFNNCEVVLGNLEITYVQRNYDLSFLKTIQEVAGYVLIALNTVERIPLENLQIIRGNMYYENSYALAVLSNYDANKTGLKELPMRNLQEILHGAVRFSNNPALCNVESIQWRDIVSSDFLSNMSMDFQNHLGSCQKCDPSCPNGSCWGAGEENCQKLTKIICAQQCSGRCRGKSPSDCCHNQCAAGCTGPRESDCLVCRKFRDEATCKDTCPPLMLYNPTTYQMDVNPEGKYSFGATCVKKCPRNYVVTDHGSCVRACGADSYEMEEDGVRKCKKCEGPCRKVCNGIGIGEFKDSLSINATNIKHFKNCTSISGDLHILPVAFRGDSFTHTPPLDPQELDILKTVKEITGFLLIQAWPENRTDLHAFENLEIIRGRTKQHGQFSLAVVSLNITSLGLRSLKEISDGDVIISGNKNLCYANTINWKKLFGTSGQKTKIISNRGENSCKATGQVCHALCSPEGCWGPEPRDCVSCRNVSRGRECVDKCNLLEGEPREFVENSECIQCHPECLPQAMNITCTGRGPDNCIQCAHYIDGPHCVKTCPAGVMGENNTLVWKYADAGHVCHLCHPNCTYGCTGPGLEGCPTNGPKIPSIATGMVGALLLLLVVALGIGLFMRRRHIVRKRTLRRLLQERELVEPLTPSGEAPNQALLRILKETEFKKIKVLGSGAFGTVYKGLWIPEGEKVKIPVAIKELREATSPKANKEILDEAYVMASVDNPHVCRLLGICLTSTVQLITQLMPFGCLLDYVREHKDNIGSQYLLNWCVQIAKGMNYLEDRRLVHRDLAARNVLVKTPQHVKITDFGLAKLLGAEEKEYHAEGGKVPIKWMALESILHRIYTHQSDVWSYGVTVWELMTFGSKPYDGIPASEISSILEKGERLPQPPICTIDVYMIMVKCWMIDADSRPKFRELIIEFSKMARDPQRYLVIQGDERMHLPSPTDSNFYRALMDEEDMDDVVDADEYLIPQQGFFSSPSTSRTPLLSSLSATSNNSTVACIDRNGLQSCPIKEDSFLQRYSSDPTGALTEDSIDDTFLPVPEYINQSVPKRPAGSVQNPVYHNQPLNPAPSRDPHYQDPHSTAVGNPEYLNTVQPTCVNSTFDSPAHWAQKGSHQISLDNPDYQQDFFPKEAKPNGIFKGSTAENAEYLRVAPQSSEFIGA
PROTOCOL_DETAILS: Kinase inhibition assay (33P transfer), EGFR
Assay type: biochemical
CONDITIONS_USED: Table 2, class symbols A-E; read-out: EGFR-1
pIC50: −log10 of the molar value.
RECORDED_ENDPOINT: pIC50

Recorded pIC50, per entry:
OCc1cccc(Nc2ncnc(-c3cccnc3NCc3ccccc3)n2)c1 [Compound 1103] | 5.20 to 5.98
CN(c1ccc(Cl)c(Cl)c1)c1ncnc(Nc2ccc3c(cnn3Cc3ccccc3)c2)n1 [Compound 903] | > 6.08
COC(=O)c1ccc(-c2cc(Nc3ncnc(NCc4ccccc4F)n3)[nH]n2)cc1 [Compound 814] | < 4.97

Input line: Quick one: pIC50 of COc1ccc(N(C)c2ncnc(Nc3ccc(OC)c(OC)c3)n2)cc1 [Compound 863] ?
Output line: > 5.96

Value source: patent US7074789B2
